# subjectOfTest: Neurogenic locus notch homolog protein 3 (Homo sapiens) (UniProt Q9UM47)
# Sequence (Q9UM47 whole entry, looked up): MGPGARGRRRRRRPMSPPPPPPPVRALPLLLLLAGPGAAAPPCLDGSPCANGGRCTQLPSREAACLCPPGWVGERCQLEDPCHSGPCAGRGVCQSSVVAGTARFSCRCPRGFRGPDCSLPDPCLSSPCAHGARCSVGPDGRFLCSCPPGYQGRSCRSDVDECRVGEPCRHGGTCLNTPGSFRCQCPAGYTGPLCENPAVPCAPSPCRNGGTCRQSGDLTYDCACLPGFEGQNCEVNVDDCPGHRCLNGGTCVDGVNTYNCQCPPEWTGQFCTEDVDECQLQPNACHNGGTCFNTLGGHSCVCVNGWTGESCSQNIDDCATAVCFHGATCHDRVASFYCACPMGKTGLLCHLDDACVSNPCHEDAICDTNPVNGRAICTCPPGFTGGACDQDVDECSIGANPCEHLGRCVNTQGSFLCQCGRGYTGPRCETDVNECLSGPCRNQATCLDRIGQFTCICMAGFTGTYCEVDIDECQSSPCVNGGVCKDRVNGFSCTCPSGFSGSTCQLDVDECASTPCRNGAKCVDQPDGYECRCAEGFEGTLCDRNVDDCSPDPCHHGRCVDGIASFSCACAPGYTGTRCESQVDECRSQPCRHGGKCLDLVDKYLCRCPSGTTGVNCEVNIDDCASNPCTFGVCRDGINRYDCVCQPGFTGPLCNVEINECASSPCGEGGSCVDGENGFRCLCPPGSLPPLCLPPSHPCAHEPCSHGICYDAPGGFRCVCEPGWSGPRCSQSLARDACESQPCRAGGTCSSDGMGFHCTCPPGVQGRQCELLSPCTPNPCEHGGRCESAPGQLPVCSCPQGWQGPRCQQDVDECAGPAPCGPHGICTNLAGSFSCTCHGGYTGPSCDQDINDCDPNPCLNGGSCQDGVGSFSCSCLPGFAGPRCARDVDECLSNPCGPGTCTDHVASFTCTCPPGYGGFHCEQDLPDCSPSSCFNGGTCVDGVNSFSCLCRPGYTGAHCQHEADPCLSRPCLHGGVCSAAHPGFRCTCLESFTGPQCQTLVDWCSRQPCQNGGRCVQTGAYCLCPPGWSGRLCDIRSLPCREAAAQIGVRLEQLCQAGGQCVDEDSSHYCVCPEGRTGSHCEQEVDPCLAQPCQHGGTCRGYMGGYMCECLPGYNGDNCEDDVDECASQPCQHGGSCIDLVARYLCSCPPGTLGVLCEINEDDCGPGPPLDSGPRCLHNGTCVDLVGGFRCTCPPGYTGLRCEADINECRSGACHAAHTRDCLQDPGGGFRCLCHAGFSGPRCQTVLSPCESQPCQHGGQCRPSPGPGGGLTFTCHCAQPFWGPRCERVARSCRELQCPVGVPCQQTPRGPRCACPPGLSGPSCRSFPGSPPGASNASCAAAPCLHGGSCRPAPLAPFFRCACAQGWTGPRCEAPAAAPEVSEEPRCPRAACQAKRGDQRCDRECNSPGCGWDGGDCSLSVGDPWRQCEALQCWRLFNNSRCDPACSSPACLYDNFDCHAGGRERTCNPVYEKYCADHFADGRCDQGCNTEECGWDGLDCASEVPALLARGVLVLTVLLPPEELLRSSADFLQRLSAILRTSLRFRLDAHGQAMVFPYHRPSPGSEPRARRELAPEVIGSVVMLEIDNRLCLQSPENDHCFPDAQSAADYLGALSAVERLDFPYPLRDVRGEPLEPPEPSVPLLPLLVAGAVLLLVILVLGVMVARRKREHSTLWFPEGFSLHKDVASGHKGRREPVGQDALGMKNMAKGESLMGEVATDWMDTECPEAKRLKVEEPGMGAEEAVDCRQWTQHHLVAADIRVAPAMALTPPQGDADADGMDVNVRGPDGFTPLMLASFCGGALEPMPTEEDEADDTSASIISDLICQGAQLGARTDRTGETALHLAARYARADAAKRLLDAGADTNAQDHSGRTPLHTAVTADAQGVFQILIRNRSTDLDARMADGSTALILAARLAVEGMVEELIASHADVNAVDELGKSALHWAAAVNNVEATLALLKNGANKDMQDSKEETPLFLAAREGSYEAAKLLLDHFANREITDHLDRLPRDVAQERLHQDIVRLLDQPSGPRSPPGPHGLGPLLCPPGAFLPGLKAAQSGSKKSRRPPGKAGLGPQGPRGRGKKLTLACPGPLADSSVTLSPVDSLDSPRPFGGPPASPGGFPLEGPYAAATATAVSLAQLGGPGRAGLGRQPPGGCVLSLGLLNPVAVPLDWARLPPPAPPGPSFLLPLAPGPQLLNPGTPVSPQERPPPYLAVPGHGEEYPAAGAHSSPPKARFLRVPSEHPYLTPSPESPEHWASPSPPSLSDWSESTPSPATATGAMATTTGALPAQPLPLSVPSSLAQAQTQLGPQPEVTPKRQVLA
# protocolSummary: NOTCH3 binders on small-molecule microarray, primary screen, biochemical, 635/667 nm fluorescence (AID 1096)
# protocolConditions: NOTCH3 binding, 635 nm fluorescence, higher = more signal
Documented composite z-score across a set of molecules

The examples below pair each entry with its known result.
COCC(=C=CC[C@@H](O)c1ccccc1OCCO)CCO: 0.442
CC(C)CON=C1C[C@@H](O)[C@@H](O)[C@@H]2[C@@H]3C(=O)N(Cc4ccccc4)C(=O)[C@@H]3CC[C@@H]12: 0.59
COC(=O)[C@H]1COC(c2ccc(OCCCO)cc2)=N1: -0.607
O=C1O[C@@H](c2ccccc2)[C@@H](c2ccccc2)N2[C@@H](c3ccccc3OCCO)[C@]3(C(=O)Nc4ccc(C#CCCO)cc43)[C@@H](C(=O)O)[C@H]12: 1.12
CC(C)=NOCc1cccc(-c2cc(-c3ccccc3)no2)c1: 0.881

Which composite z-score reading was recorded for the molecule `CCOC(=O)C[C@H]1[C@H](OC(=O)c2cc3ccccc3oc2=O)[C@@H](NC(=O)c2ccc3ccccc3n2)c2cc(OCCCO)ccc2N1C(=O)c1ccccc1` ?
0.724

Same for `CC(=O)C[C@H](O)[C@@H](NC(=O)OC(C)(C)C)C(C)C`
-0.0052

// repeat for `CO[C@@H]1COC(=O)CC=C[C@@H](C)[C@@H]2C=C[C@H](O)[C@@H](COC(=O)[C@H](C)NC(=O)CC=C[C@H]1C)O2` and report
0.868

What would you report for `COC(=O)[C@]1(CO)N=C(c2ccc(OCCCO)cc2)O[C@@H]1c1ccccc1N=[N+]=[N-]` ?
0.298

Let us now turn to `CCOC(=O)CCN1C(=O)[C@H]2[C@H]3[C@H](O)C=CC(=O)[C@@H]3CC[C@H]2C1=O`
0.629

Now consider `C[C@@H](c1ccccc1)N1C(=O)[C@H]2[C@H]3[C@H](O)[C@H](O)CC(=NOC[C@@H](O)COCc4ccco4)[C@@H]3CC[C@H]2C1=O` .
-1.1
